Species on record: Mus musculus
Assay: animal or person
Conditions: C57BL/6, po, 8 h, read-out: INH
Outcome: Y for inhibition in vivo at 30 mg/kg of at least 40%; N for anything lower.

>>> group_label("CCO[C@H]1CCN(Cc2c(C3CC3)cc(C)c3[nH]ccc23)[C@H](c2ccc(C(=O)O)cc2)C1")
"N"
>>> group_label("CCO[C@H]1CCN(Cc2c(OC)cc(C)c3[nH]ccc23)[C@H](c2ccc(C(=O)O)cc2)C1")
"Y"
>>> group_label("CO[C@H]1CCN(Cc2c(C)cc(C)c3[nH]ccc23)[C@H](c2ccc(C(=O)O)cc2)C1")
"N"
>>> group_label("COc1cc(C)c2[nH]ccc2c1CN1CC[C@H](OC)C[C@H]1c1ccc(C(=O)O)cc1")
"Y"
>>> group_label("CO[C@H]1CCN(Cc2c(C3CC3)cc(C)c3[nH]ccc23)[C@H](c2ccc(C(=O)O)cc2)C1")
"Y"
>>> group_label("CCO[C@H]1CCN(Cc2c(C)cc(C)c3[nH]ccc23)[C@H](c2ccc(C(=O)O)cc2)C1")
"N"

* * *

Assay: AUC (0 to last) in C57BL/6 mouse at 10 mg/kg, po after 7 hrs by HPLC-MS/MS analysis
Assay type: ADME, organism-based
Set-up: dose 10 mg/kg, time 0 - last, route oral
Conditions: C57BL/6, mouse, in vivo
quantity: AUC(0-t) at 7 h

>>> result("CO[C@H]1CCN(Cc2c(C)cc(C)c3[nH]ccc23)[C@H](c2ccc(C(=O)O)cc2)C1")
"10.8 µM·h"
>>> result("Cc1cc(C)c2[nH]ccc2c1CN1CCCCC1c1ccc(C(=O)O)cc1 (stereo not given)")
"17.1 µM·h"
>>> result("COc1cc(C)c2[nH]ccc2c1CN1CC[C@H](OC)C[C@H]1c1ccc(C(=O)O)cc1")
"7.7 µM·h"
>>> result("CCO[C@H]1CCN(Cc2c(C3CC3)cc(C)c3[nH]ccc23)[C@H](c2ccc(C(=O)O)cc2)C1")
"5.4 µM·h"
>>> result("CCO[C@H]1CCN(Cc2c(OC)cc(C)c3[nH]ccc23)[C@H](c2ccc(C(=O)O)cc2)C1 [IPTACOPAN]")
"7.6 µM·h"

* * *

Assay: Clearance in Wistar Han rat at 1 mg/kg, iv after 0.5 to 24 hrs by HPLC-MS/MS analysis
Type: ADME, organism-based
Conditions: in vivo
quantity: clearance (mL/min/kg)

>>> result_number("CCO[C@H]1CCN(Cc2c(OC)cc(C)c3[nH]ccc23)[C@H](c2ccc(C(=O)O)cc2)C1.Cl")
8

* * *

Test: Cmax in brown Norway rat posterior eye cup at 10 mg/kg, po administered as single dose measured after 0.25 to 24 hrs by HPLC-MS/MS analysis
Assay type: ADME, organism-based
quantity: Cmax (nM)

>>> result_number("CCO[C@H]1CCN(Cc2c(OC)cc(C)c3[nH]ccc23)[C@H](c2ccc(C(=O)O)cc2)C1")
2500

* * *

Assay: Apparent permeability across basolateral to apical side in human Caco2 cells
Type: ADME, cell-based
Conditions: Caco-2
quantity: Papp B→A (×10⁻⁶ cm/s)

>>> result_number("Cc1cc(C)c2[nH]ccc2c1CN1CCCCC1c1ccc(C(=O)O)cc1 (stereo unspecified)")
0.6

* * *

Assay: Oral bioavailability in beagle dog at 10 mg/kg after 15 mins to 24 hrs by HPLC-MS/MS analysis
Format: ADME, organism-based, Canis lupus familiaris
Conditions: in vivo
quantity: bioavailability (%)

>>> result_number("CCO[C@H]1CCN(Cc2c(OC)cc(C)c3[nH]ccc23)[C@H](c2ccc(C(=O)O)cc2)C1.Cl")
60
